src = patent US10336752B2

Can you tell me Papp A→B at 2 h, 5 μM for the items I'm about to list?
- Method summary: CACO-2 Cell Permeability Assay
- Type: in vitro ADME
- Assay setup: human, Caco-2, pH 7.4, apical to basolateral
Give just the number in ×10⁻⁶ cm/s; leave the unit off.

Reported Papp A→B at 2 h, 5 μM for O=C1NCc2nc(-c3c(F)cccc3F)cc(Nc3ccc(C(=O)N4CCCC4)cc3)c21 [Compound 1] : what is it?
5.77

Reported Papp A→B at 2 h, 5 μM for O=C1NCc2nc(-c3c(F)cccc3F)cc(Nc3ccc(N4CCOCC4)cn3)c21 [Compound 8] : what is it?
13.1

Reported Papp A→B at 2 h, 5 μM for O=C1NCc2nc(-c3c(F)cccc3F)cc(Nc3ccc(N4CCCC4)cn3)c21 [Compound 7] : what is it?
13.5

Reported Papp A→B at 2 h, 5 μM for O=C1NCc2nc(-c3c(F)cccc3F)cc(Nc3ccc(C(=O)N4CCCCC4)cc3)c21 [Compound 10] : what is it?
4.03

Reported Papp A→B at 2 h, 5 μM for O=C1NCc2nc(-c3c(F)cccc3F)cc(Nc3ccc(C(=O)N4C[C@H]5COC[C@H]5C4)cc3)c21 [Compound 17] : what is it?
1.52

Reported Papp A→B at 2 h, 5 μM for O=C1NCc2nc(-c3c(F)cccc3F)cc(Nc3ccc(C(=O)N4CCOCC4)nc3)c21 [Compound 13] : what is it?
2.89

Reported Papp A→B at 2 h, 5 μM for CCN(CC)C(=O)c1ccc(Nc2cc(-c3c(F)cccc3F)nc3c2C(=O)NC3)cc1 [Compound 11] : what is it?
5.62

Reported Papp A→B at 2 h, 5 μM for CC1(O)CCN(C(=O)c2ccc(Nc3cc(-c4c(F)cccc4F)nc4c3C(=O)NC4)cc2)CC1 [Compound 12] : what is it?
0.41

Reported Papp A→B at 2 h, 5 μM for O=C1NCc2nc(-c3c(F)cccc3F)cc(Nc3ccc(C(=O)N4CCOCC4)cc3)c21 [Compound 9] : what is it?
3.43

Reported Papp A→B at 2 h, 5 μM for N#Cc1cccc(F)c1-c1cc(Nc2ccc(C(=O)N3CCCC3)cc2)c2c(n1)CNC2=O [Compound 16] : what is it?
2.63

Reported Papp A→B at 2 h, 5 μM for N#Cc1cccc(F)c1-c1cc(Nc2ccc(C(=O)N3CCOCC3)cc2)c2c(n1)CNC2=O [Compound 14] : what is it?
2.08

Reported Papp A→B at 2 h, 5 μM for O=C1NCc2nc(-c3c(F)cccc3F)cc(Nc3ccc(C(=O)N4CCC4)cc3)c21 [Compound 15] : what is it?
7.59

* * *

Can you tell me IC50 for the items I'm about to list?
Field note: include the unit after the figure.

Under TYK2 (Homo sapiens (Human), UniProt P29597): IC50 value of O=C1NCc2nc(-c3c(F)cccc3F)cc(Nc3ccc(C(=O)N4CCCCC4)cc3)c21 ?
0.09 µM

Under TYK2 (Homo sapiens (Human), UniProt P29597): IC50 value of O=C1NCc2nc(-c3c(F)cccc3F)cc(Nc3ccc(C(=O)N4CCOCC4)cc3)c21 ?
0.134 µM

Under TYK2 (Homo sapiens (Human), UniProt P29597): IC50 value of O=C1NCc2nc(-c3c(F)cccc3F)cc(Nc3ccc(N4CCOCC4)cn3)c21 ?
0.033 µM

* * *

Can you tell me AUC(0-t) for the items I'm about to list?
- Method summary: Pharmacokinetic Study in Dogs
- Type: in vivo
- Assay setup: male, Beagle; dog, oral gavage 10 mg/kg, 20% HPβCD aq., plasma
Give just the number in ng·h/mL; leave the unit off.

Reported AUC(0-t) for O=C1NCc2nc(-c3c(F)cccc3F)cc(Nc3ccc(C(=O)N4CCCC4)cc3)c21 : what is it?
18700

Reported AUC(0-t) for O=C1NCc2nc(-c3c(F)cccc3F)cc(Nc3ccc(C(=O)N4CCOCC4)cc3)c21 : what is it?
10200

* * *

- Method summary: Metabolic Clearance Assay in Microsomes (human liver microsomes)
- Type: in vitro ADME
- Assay setup: NADPH and UDPGA, read-out: HLM Clint
Measure: CLint scaled at 2 μM (mL/min/kg)
Give just the number in mL/min/kg; leave the unit off.

Reported CLint scaled at 2 μM for O=C1NCc2nc(-c3c(F)cccc3F)cc(Nc3ccc(N4CCOCC4)cn3)c21 : what is it?
1.2

Reported CLint scaled at 2 μM for O=C1NCc2nc(-c3c(F)cccc3F)cc(Nc3ccc(N4CCCC4)cn3)c21 : what is it?
10.9

Reported CLint scaled at 2 μM for O=C1NCc2nc(-c3c(F)cccc3F)cc(Nc3ccc(C(=O)N4CCOCC4)cc3)c21 : what is it?
3

Reported CLint scaled at 2 μM for O=C1NCc2nc(-c3c(F)cccc3F)cc(Nc3ccc(C(=O)N4CCCCC4)cc3)c21 : what is it?
7.81

Reported CLint scaled at 2 μM for O=C1NCc2nc(-c3c(F)cccc3F)cc(Nc3ccc(C(=O)N4CCOCC4)nc3)c21 : what is it?
1.9

Reported CLint scaled at 2 μM for O=C1NCc2nc(-c3c(F)cccc3F)cc(Nc3ccc(C(=O)N4CCCC4)cc3)c21 : what is it?
0.62

Reported CLint scaled at 2 μM for O=C1NCc2nc(-c3c(F)cccc3F)cc(Nc3ccc(C(=O)N4CCC4)cc3)c21 : what is it?
1.78
